Reported IC50 by item:
# TARGET_ENTITY: Androgen receptor (Homo sapiens)
# Sequence (P10275 whole entry): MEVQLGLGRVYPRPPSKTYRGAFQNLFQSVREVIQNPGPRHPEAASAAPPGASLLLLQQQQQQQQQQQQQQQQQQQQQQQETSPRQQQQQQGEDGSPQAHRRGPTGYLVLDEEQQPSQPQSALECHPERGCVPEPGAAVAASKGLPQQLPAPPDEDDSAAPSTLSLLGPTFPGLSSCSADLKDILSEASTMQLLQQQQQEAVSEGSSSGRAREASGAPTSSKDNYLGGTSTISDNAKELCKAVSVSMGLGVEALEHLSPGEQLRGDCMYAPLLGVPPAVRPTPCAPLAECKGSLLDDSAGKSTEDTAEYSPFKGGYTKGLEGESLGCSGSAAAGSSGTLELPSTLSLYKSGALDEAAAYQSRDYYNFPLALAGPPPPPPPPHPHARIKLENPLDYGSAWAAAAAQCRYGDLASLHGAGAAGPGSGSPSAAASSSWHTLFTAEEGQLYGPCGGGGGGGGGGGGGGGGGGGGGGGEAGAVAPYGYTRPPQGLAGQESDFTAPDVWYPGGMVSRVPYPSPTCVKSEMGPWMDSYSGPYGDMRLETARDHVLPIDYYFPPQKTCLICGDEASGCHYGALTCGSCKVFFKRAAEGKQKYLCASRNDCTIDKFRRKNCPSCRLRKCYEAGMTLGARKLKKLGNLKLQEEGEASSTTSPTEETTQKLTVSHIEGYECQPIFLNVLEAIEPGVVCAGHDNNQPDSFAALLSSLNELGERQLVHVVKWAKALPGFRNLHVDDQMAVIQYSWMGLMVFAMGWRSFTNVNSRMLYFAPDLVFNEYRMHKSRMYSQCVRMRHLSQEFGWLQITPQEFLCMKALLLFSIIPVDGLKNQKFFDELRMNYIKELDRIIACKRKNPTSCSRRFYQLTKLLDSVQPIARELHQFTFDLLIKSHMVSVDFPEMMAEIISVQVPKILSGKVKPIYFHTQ
# PROTOCOL_DESCRIPTION: Antagonist activity at AR in human LNCAP cells assessed as reduction in DHT-induced transcriptional activation after 24 hrs by luciferase reporter gene assay
RECORDED_METRIC: IC50

molecule="O=C1CC(c2ccccc2O)Oc2cc(O)cc(O)c21 (stereo not given)" val="> 10 µM"
molecule="O=C1CC(c2ccccc2O)Oc2cc(O)ccc21 (stereo not given)" val="> 10 µM"
molecule="COc1ccc2c(c1)C(=O)CC(c1ccccc1OC)O2 (stereo not given)" val="> 10 µM"
molecule="COc1ccc2c(c1)OC(c1ccccc1O)CC2=O (stereo not given)" val="> 10 µM"
molecule=O=C(/C=C/c1ccccc1O)c1cc(Cl)ccc1O val="< 1 µM"
